Recorded EC50, one value per entry.
# assay.explanation: Stimulation of growth hormone secretion in rat pituitary cells
# Assay type: functional, cell-based
# condition.info: Pituitary gland cell
Peptide text beside a SMILES is read from it.
Value expressed in nM; do not type the unit.

Below, 3 molecules whose answers are already recorded.
Item under review: C[C@H](NC(=O)[C@H](Cc1c[nH]c2ccccc12)NC(=O)[C@@H](N)Cc1c[nH]cn1)C(=O)N[C@@H](Cc1c[nH]c2ccccc12)C(=O)N[C@@H](Cc1ccccc1)C(=O)N[C@@H](CCCCN)C(N)=O (H-HWAWFK-NH2) . Reported EC50? 10

Would you mind telling me what EC50 value was observed for C[C@H](O)CNC(C)(C)CC(=O)N[C@@H]1CCc2ccccc2N(Cc2ccc(-c3ccccc3-c3nn[nH]n3)cc2)C1=O ? 3

Which value of EC50 has been reported for CC(C)(N)C(=O)N[C@H](COCc1ccccc1)C(=O)N1CCC2(CC1)CN(S(C)(=O)=O)c1ccccc12 [IBUTAMOREN] in the records? 1.3

More entries:
Given the entry CC(C)(N)CC(=O)N[C@@H]1CCc2ccccc2N(Cc2ccc(-c3ccccc3-c3nn[nH]n3)cc2)C1=O , report its measured EC50. 60
